The reported numbers originate from the supplement of paper PMC6992640.

system: HCI11 (cells of an ER-positive luminal breast cancer xenograft); assay: cell viability (% of vehicle); higher = less cytotoxic; settings: 10 µM; 72 h
Examples of molecules with documented cell viability follow.
// return just the number, without any unit appended

Here are 2 molecules together with their reported answers.
{"columns": ["MOLECULE", "cell viability"],
 "data": [
  ["COc1cccc2c1C(=O)c1c(O)c3c(c(O)c1C2=O)CC(O)(C(=O)CO)CC3OC1CC(N)C(O)C(C)O1.Cl (centres undefined) [Epirubicin HCl]", 50.5],
  ["CNC(=O)c1cc(Oc2ccc(NC(=O)Nc3ccc(Cl)c(C(F)(F)F)c3)cc2)ccn1.Cc1ccc(S(=O)(=O)O)cc1 [Sorafenib Tosylate]", 63.9]
]}

GET /values?readout=cell viability&system=HCI11&item= CO[C@H]1C[C@@H]2CC[C@@H](C)[C@@](O)(O2)C(=O)C(=O)N2CCCC[C@H]2C(=O)O[C@H]([C@@H](C)C[C@@H]2CC[C@@H](OCCO)[C@H](OC)C2)CC(=O)[C@H](C)/C=C(\C)[C@@H](O)[C@@H](OC)C(=O)[C@H](C)C[C@H](C)/C=C/C=C/C=C/1C [Everolimus (RAD001)]
102

GET /values?readout=cell viability&system=HCI11&item= CCC(CC)C(NC(C)=O)C1C(N=C(N)N)CC(C(=O)O)C1O (centres undefined)
98

* * *

Examples of molecules with documented cell viability follow.
system: HCI11; assay: cell viability (% of vehicle); higher = less cytotoxic; conditions: 10 µM; 72 h
// return just the number, without any unit appended

{"columns": ["MOLECULE", "VALUE OBSERVED"],
 "data": [
  ["CC1OC(OCC2OC(Oc3c(-c4ccc(O)c(O)c4)oc4cc(O)cc(O)c4c3=O)C(O)C(O)C2O)C(O)C(O)C1O (stereo unspecified)", 102],
  ["CCOC(=O)c1ccc(N)cc1", 117]
]}

Give the measured cell viability of COS(=O)(=O)[O-].C[N+]1(C)CCC(=C(c2ccccc2)c2ccccc2)CC1 [Diphemanil Methylsulfate] .
109

Give the measured cell viability of CC1=C2N=C(C=C3N=C(C(C)=C4[N-]C(C)(C5N=C1C(C)(CCC(=O)NCC(C)OP(=O)([O-])OC1C(CO)OC(n6cnc7cc(C)c(C)cc76)C1O)C5CC(N)=O)C(C)(CC(N)=O)C4CCC(N)=O)C(C)(CC(N)=O)C3CCC(N)=O)C(C)(C)C2CCC(N)=O.[CH3-].[Co+3] (stereo unspecified) .
91.1

Give the measured cell viability of CN1CCN(CCOc2cc(OC3CCOCC3)c3c(Nc4c(Cl)ccc5c4OCO5)ncnc3c2)CC1 .
105

Give the measured cell viability of Cc1cc(C)nc(NS(=O)(=O)c2ccc(N)cc2)n1 .
89.6

* * *

test system: HCI01 (cells of a triple-negative basal-like breast cancer xenograft); assay: cell viability of combination (% of vehicle); higher = less cytotoxic; conditions: 1 µM; 72 h; partner dose: 10 nM
VALUE KIND: cell viability of combination

Here are 2 molecules together with their reported answers.
{"columns": ["MOLECULE", "VALUE OBSERVED"],
 "data": [
  ["COc1cc2c(Oc3ccc(NC(=O)C4(C(=O)Nc5ccc(F)cc5)CC4)cc3F)ccnc2cc1OCCCN1CCOCC1 + CN(C)C/C=C/C(=O)Nc1cc2c(Nc3ccc(F)c(Cl)c3)ncnc2cc1O[C@H]1CCOC1", 33.9],
  ["CCCCCCCCOc1ccccc1C(=O)Nc1ccc(C(=O)OCC[N+](C)(CC)CC)cc1.[Br-] [Otilonium Bromide] + CN(C)C/C=C/C(=O)Nc1cc2c(Nc3ccc(F)c(Cl)c3)ncnc2cc1O[C@H]1CCOC1", 52.9]
]}

Give the measured cell viability of combination of COc1ccc2cc1Oc1ccc(cc1)CC1c3c(cc4c(c3Oc3cc5c(cc3OC)CCN(C)C5C2)OCO4)CCN1C (centres undefined) [Cepharanthine] + CN(C)C/C=C/C(=O)Nc1cc2c(Nc3ccc(F)c(Cl)c3)ncnc2cc1O[C@H]1CCOC1 .
48.5

Give the measured cell viability of combination of CN1CCC(COc2cnc(-c3cccc(Cn4nc(-c5cccc(C#N)c5)ccc4=O)c3)nc2)CC1 + CN(C)C/C=C/C(=O)Nc1cc2c(Nc3ccc(F)c(Cl)c3)ncnc2cc1O[C@H]1CCOC1 .
39.9

* * *

system: WHIM2 (cells of a triple-negative basal-like breast cancer xenograft); test: cell viability of combination (% of vehicle); higher = less cytotoxic; conditions: 1 µM; 72 h; partner dose: 10 nM
Examples of molecules with documented cell viability of combination follow.

{"columns": ["MOLECULE", "VALUE OBSERVED"],
 "data": [
  ["CCOc1cc2ncc(C#N)c(Nc3ccc(OCc4ccccn4)c(Cl)c3)c2cc1NC(=O)C=CCN(C)C [Neratinib (HKI-272)] + CN(C)C/C=C/C(=O)Nc1cc2c(Nc3ccc(F)c(Cl)c3)ncnc2cc1O[C@H]1CCOC1", 25.5],
  ["[O-]n1ccccc1=S.[O-]n1ccccc1=S.[Zn+2] [Zinc Pyrithione] + CN(C)C/C=C/C(=O)Nc1cc2c(Nc3ccc(F)c(Cl)c3)ncnc2cc1O[C@H]1CCOC1", 33.9],
  ["CC(C)(C)Cn1c(N)nc2ccc(-c3[nH]c(C(C)(C)C)nc3-c3ccc(F)cc3)nc21.CS(=O)(=O)O.CS(=O)(=O)O + CN(C)C/C=C/C(=O)Nc1cc2c(Nc3ccc(F)c(Cl)c3)ncnc2cc1O[C@H]1CCOC1", 35.4]
]}

Give the measured cell viability of combination of CO[C@H]1C[C@@H]2CC[C@@H](C)[C@@](O)(O2)C(=O)C(=O)N2CCCC[C@H]2C(=O)O[C@H]([C@H](C)C[C@@H]2CC[C@@H](O)[C@H](OC)C2)CC(=O)[C@H](C)/C=C(\C)[C@@H](O)[C@@H](OC)C(=O)[C@H](C)C[C@H](C)/C=C/C=C/C=C/1C [Rapamycin (Sirolimus)] + CN(C)C/C=C/C(=O)Nc1cc2c(Nc3ccc(F)c(Cl)c3)ncnc2cc1O[C@H]1CCOC1 .
39.3

Give the measured cell viability of combination of Nc1c(CC(=O)[O-])cccc1C(=O)c1ccccc1.O.[Na+] [Amfenac Sodium Monohydrate] + CN(C)C/C=C/C(=O)Nc1cc2c(Nc3ccc(F)c(Cl)c3)ncnc2cc1O[C@H]1CCOC1 .
47.6

Give the measured cell viability of combination of Cc1cn(-c2cc(NC(=O)c3ccc(C)c(Nc4nccc(-c5cccnc5)n4)c3)cc(C(F)(F)F)c2)cn1 [Nilotinib(AMN-107)] + CN(C)C/C=C/C(=O)Nc1cc2c(Nc3ccc(F)c(Cl)c3)ncnc2cc1O[C@H]1CCOC1 .
63.2

Give the measured cell viability of combination of CC(C)C(=O)OCC(=O)[C@@]12O[C@H](C3CCCCC3)O[C@@H]1C[C@H]1[C@@H]3CCC4=CC(=O)C=C[C@]4(C)[C@H]3[C@@H](O)C[C@@]12C [Ciclesonide] + CN(C)C/C=C/C(=O)Nc1cc2c(Nc3ccc(F)c(Cl)c3)ncnc2cc1O[C@H]1CCOC1 .
41.3

Give the measured cell viability of combination of Cc1ccc(NC(=O)c2ccc(CN3CCN(C)CC3)cc2)cc1Nc1nc(-c2cccnc2)cs1 [Masitinib (AB1010)] + CN(C)C/C=C/C(=O)Nc1cc2c(Nc3ccc(F)c(Cl)c3)ncnc2cc1O[C@H]1CCOC1 .
54.7

* * *

test system: WHIM2; test: cell viability (% of vehicle); higher = less cytotoxic; conditions: 10 µM; 72 h
VALUE KIND: cell viability
// return just the number, without any unit appended

{"columns": ["COMPOUND", "cell viability"],
 "data": [
  ["CC(=O)NC(CS)C(=O)O (stereo not given) [Acetylcysteine]", 124],
  ["Cn1nnc(-c2ccc(-c3ccc(N4CC(CO)OC4=O)cc3F)cn2)n1 (stereo not given) [Tedizolid]", 157],
  ["Cl.Cl.NCCc1cnc[nH]1 [Histamine 2HCl]", 81.3]
]}

Give the measured cell viability of Cl.O=C1Cc2cc(CCN3CCN(c4nsc5ccccc45)CC3)c(Cl)cc2N1 [Ziprasidone HCl] .
38.1

Give the measured cell viability of C#CC1(OC(C)=O)CCC2C3CCC4=CC(OC(C)=O)CCC4C3CCC21C (stereo not given) [Ethynodiol diacetate] .
107

* * *

tested on: WHIM30 (cells of a triple-negative basal-like breast cancer xenograft); assay: cell viability of combination (% of vehicle); higher = less cytotoxic; settings: 1 µM; 72 h; partner dose: 10 nM
Examples of compounds with documented cell viability of combination follow.
// return just the number, without any unit appended

Here are 2 compounds together with their reported answers.
{"columns": ["COMPOUND", "cell viability of combination"],
 "data": [
  ["CC(NCCCc1cccc(C(F)(F)F)c1)c1cccc2ccccc12.Cl (stereo not drawn) [Cinacalcet HCl] + CC(C)C[C@H](NC(=O)[C@H](CCc1ccccc1)NC(=O)CN1CCOCC1)C(=O)N[C@@H](Cc1ccccc1)C(=O)N[C@@H](CC(C)C)C(=O)[C@@]1(C)CO1", 18.6],
  ["CCOc1cc2ncc(C#N)c(Nc3ccc(F)c(Cl)c3)c2cc1NC(=O)C=CCN(C)C [Pelitinib (EKB-569)] + CC(C)C[C@H](NC(=O)[C@H](CCc1ccccc1)NC(=O)CN1CCOCC1)C(=O)N[C@@H](Cc1ccccc1)C(=O)N[C@@H](CC(C)C)C(=O)[C@@]1(C)CO1", 5.92]
]}

Give the measured cell viability of combination of Clc1ccc(CSC(Cn2ccnc2)c2ccc(Cl)cc2Cl)cc1.O=[N+]([O-])O (stereo not drawn) [Sulconazole Nitrate] + CC(C)C[C@H](NC(=O)[C@H](CCc1ccccc1)NC(=O)CN1CCOCC1)C(=O)N[C@@H](Cc1ccccc1)C(=O)N[C@@H](CC(C)C)C(=O)[C@@]1(C)CO1 .
14.2
